Cited source: paper PMC2679375

# experimental.details: in vivo
# assay.setup: rat, po, 30 mg/kg
property.label: AUC(0-inf)

{"smiles.data": "CN[C@@H](C)C(=O)N[C@H]1CN(C(=O)Cc2ccccc2)CC[C@H]2CC[C@@H](C(=O)NC(c3ccccc3)c3ccccc3)N2C1=O", "property.label": "AUC(0-inf)", "reported.measurement": "1980 ng·h/mL"}
